This collection of values is drawn from PubChem BioAssay (NCI).

# System: HOP-62 NSCLC
# ASSAY NOTES: NCI tumour cell line growth inhibition, 48 h
MEASURED METRIC: log10(TGI) (log10 of the value in µM)

{"COMPOUND": "CCCCCCCCC1C(C)c2c([nH]c3ccccc23)C2C(=O)N(c3ccccc3)C(=O)C21 (stereo not given)", "log10(TGI)": 1.58}
{"COMPOUND": "O=C(N/N=C/c1cc(Cl)cc(Cl)c1[O-])c1ccccc1O.O=C(N/N=C/c1cc(Cl)cc(Cl)c1[O-])c1ccccc1O.[Cu+2]", "log10(TGI)": -0.05}
{"COMPOUND": "CCCCCCCCCCCCCC(=O)NO", "log10(TGI)": 1.54}
{"COMPOUND": "COc1cc(Cn2c3ccccc3c3cc(C)cc(OC)c32)cc2c1[nH]c1ccccc12", "log10(TGI)": 1.24}
{"COMPOUND": "Cc1ccc(/C=C2\\CCS(=O)(=O)c3ccccc3C2=O)cc1", "log10(TGI)": 1.91}
{"COMPOUND": "CCc1c2c(nc3ccc(OC(=O)OCc4ccc(B5OC(C)(C)C(C)(C)O5)cc4)cc13)-c1cc3c(c(=O)n1C2)COC(=O)[C@]3(O)CC", "log10(TGI)": 0.51}
{"COMPOUND": "COc1cccc2c1C(=O)c1c(O)c3c(c(O)c1C2=O)CC(O)(C(C)=O)CC3OC1OC(COC(C)=O)C(OC(C)=O)C(OC(C)=O)C1OC(C)=O (stereo not given)", "log10(TGI)": 1.52}
{"COMPOUND": "COc1ccccc1/C=C1\\CCC(CN2CCOCC2)C1=O (stereo not given)", "log10(TGI)": 1.70}
{"COMPOUND": "CC(C)(CN1CCCCC1)C(=O)CC(SCCS(=O)(=O)O)c1ccccc1 (stereo not given)", "log10(TGI)": 1.79}

* * *

Below, each entry is listed with its recorded TGI.
# Test system: PC-3 prostate
# ASSAY NOTES: NCI tumour cell line growth inhibition, 48 h

{"COMPOUND": "CSc1nc(SC)c2c(C)c(Br)[nH]c2n1", "TARGET DESC": "PC-3 prostate", "TGI": "> 100 µM"}
{"COMPOUND": "CC(NNC(=S)N1CCCC1)c1cccnn1 (stereo unspecified)", "TARGET DESC": "PC-3 prostate", "TGI": "> 100 µM"}
{"COMPOUND": "COc1c(-c2ccc(F)cc2)oc2c(CC(=O)O)cccc2c1=O", "TARGET DESC": "PC-3 prostate", "TGI": "> 100 µM"}
{"COMPOUND": "O=C(Cn1c2ccc(Br)cc2c2nc3ccccc3nc21)N1CCOCC1", "TARGET DESC": "PC-3 prostate", "TGI": "> 100 µM"}
{"COMPOUND": "CCOC(=O)Nc1cc2c(c(N)n1)N=C(c1ccccc1)CN2", "TARGET DESC": "PC-3 prostate", "TGI": "< 0.0001 µM"}
{"COMPOUND": "COc1ccc2nc3c([N+](=O)[O-])ccc4c3c(c2c1)N=CN4CCN(C)C", "TARGET DESC": "PC-3 prostate", "TGI": "35.4 µM"}

* * *

TGI: recorded values
# System: SNB-19 CNS
# ASSAY NOTES: NCI tumour cell line growth inhibition, 48 h
Where a SMILES comes first, the peptide text is derived from it. Bridges are numbered along the chain shown (N, C = ends).

{"MOLECULE": "COc1ccc2c(c1)C(=O)/C(=C/c1cccc(OCC(=O)c3ccc([N+](=O)[O-])cc3)c1)CO2", "TGI": "25.4 µM"}
{"MOLECULE": "NCCCC(N)(C(=O)O)C(F)F (stereo not given)", "TGI": "> 5000 µM"}
{"MOLECULE": "Nc1nc(N)c(CCCCc2ccccc2)c(/C=C/c2ccc([N+](=O)[O-])cc2)n1", "TGI": "64.7 µM"}
{"MOLECULE": "COC(=O)/C=C(C)/C=C/c1c(C)c(C(C)=O)c(C)n1C", "TGI": "> 100 µM"}
{"MOLECULE": "Cc1cc2oc(=O)cc(OC/C=C3/CCC(=O)O3)c2cc1C", "TGI": "19 µM"}
{"MOLECULE": "O=C(Nc1ccccc1)c1cc2cc(CCl)ccc2oc1=O", "TGI": "> 100 µM"}
{"MOLECULE": "COc1cc2c(c(OC)c1)C(=O)C(=O)C(CC1(C)OCCCO1)=C2", "TGI": "> 53.2 µM"}
{"MOLECULE": "COc1ccccc1-c1ccc2c(N)c(C(=O)c3ccc4c(c3)OCO4)sc2n1", "TGI": "30.2 µM"}
{"MOLECULE": "CN(C)c1ccc2cc3c(cc2c1)Oc1ccccc1N3.[Cl][Zn][Cl]", "TGI": "52.2 µM"}
{"MOLECULE": "O=S1(=O)OCCOS(=O)(=O)C1(Br)Br", "TGI": "> 100 µM"}
{"MOLECULE": "CSc1nc(SC)c2c(C)c(Br)[nH]c2n1", "TGI": "> 100 µM"}
{"MOLECULE": "O=C(CCN1CCCC1)Nc1ccc2c(Nc3ccc(Br)cc3)c3ccccc3nc2c1", "TGI": "2.79 µM"}
{"MOLECULE": "C=C(C)C1CC=C(C)C(O)([C@@]2(O)C[C@H](C(=C)C)CC=C2C)C1 (stereo not given in full)", "TGI": "> 100 µM"}
{"MOLECULE": "O=c1[nH]c(Br)nc2n[nH]nc12", "TGI": "> 100 µM"}
{"MOLECULE": "COc1cc2cnc3c4cc(O)ccc4ccc3c2cc1OC", "TGI": "> 100 µM"}
{"MOLECULE": "CC(C)OP(=O)(OC(C)C)/C(=N/Nc1ccc([N+](=O)[O-])cc1)NNC(=O)c1ccccc1", "TGI": "> 100 µM"}
{"MOLECULE": "Nc1n[nH]c(N)n1", "TGI": "> 10000 µM"}
{"MOLECULE": "COc1cc(C(=O)c2cnc(-c3ccc4cc[nH]c4c3)[nH]2)cc(OC)c1OC", "TGI": "13.7 µM"}
{"MOLECULE": "Cc1c(C(=O)/C=C/c2ccc(Cl)cc2)nnn1-c1ccnc2c(C(F)(F)F)cccc12", "TGI": "> 100 µM"}
{"MOLECULE": "CC1=NC(=O)CNN1C1=NNC2(C(=O)N1)c1ccccc1-c1ccccc12", "TGI": "> 100 µM"}
{"MOLECULE": "Cc1ccc(-c2nc3ccccc3c(=O)n2NC2OC(CO)C(O)C(O)C2O)cc1 (stereo not given)", "TGI": "> 100 µM"}
{"MOLECULE": "C[C@@]12C[C@@H](c3ccccc3O1)N1CCCSC1=N2", "TGI": "> 100 µM"}
{"MOLECULE": "CCC(C)C1NC(=O)C(CC(C)C)NC(=O)C(C(C)C)NC(=O)C2CSSCC(NC1=O)C(=O)N2 (stereo not given) (cyclo(CCVLI); disulfide 1-2; configuration not given here)", "TGI": "0.344 µM"}
{"MOLECULE": "O=C(N/N=C\\c1ccc(Cl)cc1)Nc1cccc2ccccc12", "TGI": "5.64 µM"}
{"MOLECULE": "Cc1cc(N(CCC#N)CCC#N)ccc1/C=C(\\N=[N+]=[N-])C(=O)NC(=O)COc1ccccc1", "TGI": "> 100 µM"}
{"MOLECULE": "C=C1C(=O)O[C@H]2C1C[C@H](O)/C(C)=C/CC[C@@]1(C)O[C@H]21 (stereo not given in full)", "TGI": "> 100 µM"}
{"MOLECULE": "COc1cc2c(cc1OC)-c1cc3cc(OC)c(OC)cc3c(C)[n+]1CC2 (tested in a mixture with another compound)", "TGI": "> 100 µM"}
{"MOLECULE": "O=C(O)c1ccc(Nc2nc3ccc(C(F)(F)F)cc3nc2-c2ccccc2)cc1", "TGI": "> 100 µM"}
{"MOLECULE": "CC(C)C1CCC(=O)CC1CCCCC1CC(=O)CC1O[Si](C)(C)C(C)(C)C (stereo not given)", "TGI": "13.2 µM"}
{"MOLECULE": "CSC(=NC(=O)c1ccccc1)SCCSC(=NC(=O)c1ccccc1)SC", "TGI": "> 100 µM"}
{"MOLECULE": "C[n+]1ccc2/c(=C\\C#N)c3ccccc3n21", "TGI": "30.1 µM"}
{"MOLECULE": "COc1cc(Cn2c3ccccc3c3cc(C)cc(OC)c32)cc2c1[nH]c1ccccc12", "TGI": "> 25 µM"}
{"MOLECULE": "Cn1c2ccccc2c(=NNc2ccc(S(=O)(=O)N=C(N)N)cc2)c2ccccc21", "TGI": "22.6 µM"}
{"MOLECULE": "O=C(CC1(O)C(=O)Nc2c(Cl)cc(Cl)cc21)c1ccc([N+](=O)[O-])cc1 (stereo not given)", "TGI": "> 100 µM"}
{"MOLECULE": "CC(C)(C)C1CCC2c3c([nH]c4ccccc34)C3C(=O)N(c4cc(Cl)ccc4Cl)C(=O)C3C2C1 (stereo not given)", "TGI": "> 100 µM"}
{"MOLECULE": "CCN(CC)CCC(=O)Nc1ccc2sc3ccccc3c(=O)c2n1", "TGI": "53.1 µM"}
{"MOLECULE": "CCOC(OCC)[C@@H]1C[C@@H]2N(O[C@H](OC3CCCC3(c3ccccc3)c3ccccc3)[C@H](OC(C)=O)[C@@]2(CC)Cc2ccc(OC)c(OC)c2)O1 (stereo not given in full)", "TGI": "> 100 µM"}
{"MOLECULE": "CC[C@H](C)C(=O)O[C@H]1CCC=C2C=C[C@H](C)[C@H](CC[C@@H]3C[C@@H](O)CC(=O)O3)[C@H]21", "TGI": "> 100 µM"}
{"MOLECULE": "O=C(/C=C/c1ccc(Cl)cc1)c1nc2ccccc2[nH]1", "TGI": "> 100 µM"}
{"MOLECULE": "O=[N+]([O-])c1cc(C(F)(F)F)cc2n[se]nc12", "TGI": "29.5 µM"}
